- procedure details: Peptide assay and peptide impurities by RP-HPLC
- Type: physicochemical
- condition info: sized-vesicle preparation stored at −20° C. ± 5° C., 6 months
experimental endpoint: Peptide Assay (RP-HPLC)
# answer = value followed by unit

Incoming: What value of measured Peptide Assay (RP-HPLC) is listed for LMLGEFLKL (Survivin HLA-A2 (modified)) [SurA2.M, survivin peptide antigen [HLA-A2]] ?
Outgoing: 0.92 mg/mL

Incoming: Then FTELTLGEF (Survivin HLA-A1 (modified)) [SurA1.T, survivin peptide antigen [HLA-A1]] ?
Outgoing: 1.04 mg/mL

Incoming: Now this one: STFKNWPFL (Survivin HLA-A24) [SurA24, survivin peptide antigen [HLA-A24]]
Outgoing: 0.99 mg/mL

Incoming: Next: RISTFKNWPK (Survivin HLA-A3 (modified)) [SurA3.K, survivin peptide antigen [HLA-A3], added after sizing]
Outgoing: 0.98 mg/mL

Incoming: Do the same for LPPAWQPFL (Survivin HLA-B7) [SurB7, survivin peptide antigen [HLA-B7]] please
Outgoing: 1.01 mg/mL

---

- procedure details: Peptide assay and peptide impurities by RP-HPLC
- Assay type: physicochemical
- condition info: sized-vesicle preparation stored at −20° C. ± 5° C., 0 months
Could you please report measured Peptide Assay (RP-HPLC) for the items listed next?
Field: numeric (mg/mL). Do not append units.

Incoming: Looking for the measured Peptide Assay (RP-HPLC) of LMLGEFLKL (Survivin HLA-A2 (modified)) [SurA2.M, survivin peptide antigen [HLA-A2]] , can you help?
Outgoing: 0.95

Incoming: And what about the sequence STFKNWPFL (Survivin HLA-A24) [SurA24, survivin peptide antigen [HLA-A24]] ?
Outgoing: 1.00

Incoming: Can you check LPPAWQPFL (Survivin HLA-B7) [SurB7, survivin peptide antigen [HLA-B7]] next?
Outgoing: 1.09

Incoming: Likewise for RISTFKNWPK (Survivin HLA-A3 (modified)) [SurA3.K, survivin peptide antigen [HLA-A3], added after sizing] ?
Outgoing: 1.04

Incoming: Another sequence: FTELTLGEF (Survivin HLA-A1 (modified)) [SurA1.T, survivin peptide antigen [HLA-A1]]
Outgoing: 1.03

---

- procedure details: Peptide assay and peptide impurities by RP-HPLC
- Format: physicochemical
- condition info: sized-vesicle preparation stored at 5° C. ± 3° C., 18 months
// boundary case: Peptide Assay (RP-HPLC) equal to 1 mg/mL maps to Condition not met; strictly smaller maps to Condition met

Incoming: Here's an entry: LPPAWQPFL (Survivin HLA-B7) [SurB7, survivin peptide antigen [HLA-B7]] . Is its Peptide Assay (RP-HPLC) below 1 mg/mL?
Outgoing: Condition not met

Incoming: Can you check FTELTLGEF (Survivin HLA-A1 (modified)) [SurA1.T, survivin peptide antigen [HLA-A1]] next?
Outgoing: Condition not met

Incoming: What about this sequence? LMLGEFLKL (Survivin HLA-A2 (modified)) [SurA2.M, survivin peptide antigen [HLA-A2]]
Outgoing: Condition met

---

- procedure details: Peptide assay and peptide impurities by RP-HPLC
- Format: physicochemical
- condition info: sized-vesicle preparation stored at 5° C. ± 3° C., 6 months
Answer each item with its documented Peptide Assay (RP-HPLC).
Numbers only; they are read as mg/mL.

Incoming: I am curious: what Peptide Assay (RP-HPLC) value has been reported for STFKNWPFL (Survivin HLA-A24) [SurA24, survivin peptide antigen [HLA-A24]] ?
Outgoing: 0.98

Incoming: Next record, please: LPPAWQPFL (Survivin HLA-B7) [SurB7, survivin peptide antigen [HLA-B7]]
Outgoing: 1.00

Incoming: Also check FTELTLGEF (Survivin HLA-A1 (modified)) [SurA1.T, survivin peptide antigen [HLA-A1]]
Outgoing: 1.03

Incoming: What do you have for LMLGEFLKL (Survivin HLA-A2 (modified)) [SurA2.M, survivin peptide antigen [HLA-A2]] ?
Outgoing: 0.91

Incoming: Do the same for RISTFKNWPK (Survivin HLA-A3 (modified)) [SurA3.K, survivin peptide antigen [HLA-A3], added after sizing] please
Outgoing: 0.93

---

Please provide measured Peptide Assay (RP-HPLC) for the entries that follow.
- procedure details: Peptide assay and peptide impurities by RP-HPLC
- Type: physicochemical
- condition info: sized-vesicle preparation stored at 5° C. ± 3° C., 12 months
// note: answer is a bare numeric in mg/mL

Incoming: // Peptide Assay (RP-HPLC) lookup, key: LMLGEFLKL (Survivin HLA-A2 (modified)) [SurA2.M, survivin peptide antigen [HLA-A2]]
Outgoing: 0.88

Incoming: Input RISTFKNWPK (Survivin HLA-A3 (modified)) [SurA3.K, survivin peptide antigen [HLA-A3], added after sizing]
Outgoing: 0.93

Incoming: Also need LPPAWQPFL (Survivin HLA-B7) [SurB7, survivin peptide antigen [HLA-B7]] , thanks.
Outgoing: 0.99

Incoming: Also check STFKNWPFL (Survivin HLA-A24) [SurA24, survivin peptide antigen [HLA-A24]]
Outgoing: 0.95

Incoming: Another sequence to check: FTELTLGEF (Survivin HLA-A1 (modified)) [SurA1.T, survivin peptide antigen [HLA-A1]]
Outgoing: 0.97

---

- procedure details: Peptide assay and peptide impurities by RP-HPLC
- Format: physicochemical
- condition info: sized-vesicle preparation stored at 5° C. ± 3° C., 9 months
Consider the following sequences; for each one, report its Peptide Assay (RP-HPLC).
Answer in mg/mL, number only, no unit symbol.

Incoming: Need Peptide Assay (RP-HPLC) of LPPAWQPFL (Survivin HLA-B7) [SurB7, survivin peptide antigen [HLA-B7]] , thanks.
Outgoing: 1.00

Incoming: Now the same for LMLGEFLKL (Survivin HLA-A2 (modified)) [SurA2.M, survivin peptide antigen [HLA-A2]]
Outgoing: 0.89

Incoming: One more sequence: RISTFKNWPK (Survivin HLA-A3 (modified)) [SurA3.K, survivin peptide antigen [HLA-A3], added after sizing]
Outgoing: 0.92

Incoming: Continue with STFKNWPFL (Survivin HLA-A24) [SurA24, survivin peptide antigen [HLA-A24]]
Outgoing: 0.95

Incoming: Same for FTELTLGEF (Survivin HLA-A1 (modified)) [SurA1.T, survivin peptide antigen [HLA-A1]]
Outgoing: 1.02

---

- procedure details: Peptide assay and peptide impurities by RP-HPLC
- Type: physicochemical
- condition info: compositions from sized lipid vesicle particles, Average (n = 5)
- Description: Identification and quantification of peptides was performed using a reversed-phase HPLC (RP-HPLC) method. The method utilizes an Agilent 1100 Series HPLC system equipped with a Phenomenex Luna 5 μm C8(2) column. The mobile phase is a gradient of 16-37% (v/v) acetonitrile in 0.1% (v/v) aqueous trifluoroacetic acid. Column temperature is maintained at 50° C., and UV-PDA detection is performed at 215 nm. The assay may also be used to identify peptide impurities. […]
experimental endpoint: Peptide Content by RP-HPLC (mg/mL)
Could you give me the number in mg/mL? Just the number is fine.

Incoming: Would you mind telling me what Peptide Content by RP-HPLC value was observed for STFKNWPFL (Survivin HLA-A24) [SurA24, survivin peptide antigen [HLA-A24]] ?
Outgoing: 0.93

Incoming: Let us now turn to FTELTLGEF (Survivin HLA-A1 (modified)) [SurA1.T, survivin peptide antigen [HLA-A1]]
Outgoing: 1.09

Incoming: Now consider LMLGEFLKL (Survivin HLA-A2 (modified)) [SurA2.M, survivin peptide antigen [HLA-A2]] .
Outgoing: 1.14

Incoming: // next record RISTFKNWPK (Survivin HLA-A3 (modified)) [SurA3.K, survivin peptide antigen [HLA-A3], added after sizing]
Outgoing: 0.89

Incoming: Next entry: LPPAWQPFL (Survivin HLA-B7) [SurB7, survivin peptide antigen [HLA-B7]]
Outgoing: 1.09

---

- procedure details: Peptide assay and peptide impurities by RP-HPLC
- Type: physicochemical
- condition info: sized-vesicle preparation stored at 5° C. ± 3° C., 3 months
experimental endpoint: Peptide Assay (RP-HPLC) (mg/mL)
Give just the number in mg/mL; leave the unit off.

Incoming: I would be grateful if you could share the reported Peptide Assay (RP-HPLC) for STFKNWPFL (Survivin HLA-A24) [SurA24, survivin peptide antigen [HLA-A24]] .
Outgoing: 0.98

Incoming: Okay, and RISTFKNWPK (Survivin HLA-A3 (modified)) [SurA3.K, survivin peptide antigen [HLA-A3], added after sizing] ?
Outgoing: 0.99

Incoming: Continue with LPPAWQPFL (Survivin HLA-B7) [SurB7, survivin peptide antigen [HLA-B7]]
Outgoing: 1.01

Incoming: Param item: LMLGEFLKL (Survivin HLA-A2 (modified)) [SurA2.M, survivin peptide antigen [HLA-A2]]
Outgoing: 0.91

Incoming: Then what about the sequence FTELTLGEF (Survivin HLA-A1 (modified)) [SurA1.T, survivin peptide antigen [HLA-A1]] ?
Outgoing: 1.02

Provenance of the data: patent US20200353062A1
